// reported ELISA data per item
Molecular target: T1, CD81 (UniProt P60033 1-236, limits assumed)
T1 construct: whole, on cells; also called CD81 receptor
T1 sequence (looked up): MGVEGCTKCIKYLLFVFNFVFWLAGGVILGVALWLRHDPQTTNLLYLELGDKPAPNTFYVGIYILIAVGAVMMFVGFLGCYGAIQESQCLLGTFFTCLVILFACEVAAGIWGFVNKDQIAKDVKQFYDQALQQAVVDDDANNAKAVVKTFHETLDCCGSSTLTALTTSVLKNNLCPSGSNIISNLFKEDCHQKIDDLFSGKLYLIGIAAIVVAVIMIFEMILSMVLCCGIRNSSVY
Test: cell ELISA;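 further: antibody binding to HuH7 cells expressing CD81 versus a CD81-negative HuH7 control line, bound antibody detected by secondary reagent, absorbance at 450 nm with 620 nm reference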
# print the numeric value only

binder: CD81K13 HC 03-hVH_1_69 / LC 5b-hVK_1_39 (antibody, V domains shown, human constant region) VH: QVQLVQSGAEVKKPGSSVKVSCKASGFNFKDSYLHWVRQAPGQGLEWMGRIDTGNGNVKYAQKFQGRVTITADESTSTAYMELSSLRSEDTAVYYCAPYGYGFHSWGQGTLVTVSS VL: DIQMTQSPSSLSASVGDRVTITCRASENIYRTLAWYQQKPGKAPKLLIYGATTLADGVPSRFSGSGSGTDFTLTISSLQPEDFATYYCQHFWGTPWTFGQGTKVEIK
ELISA data: 0.546
--
binder: CD81K13 HC 07-hVH_1_3 / LC 1c-hVK_3_15 (antibody, V domains shown, human constant region) VH: QVQLVQSGAEVKKPGASVKVSCKASGYTFKDSYLHWVRQAPGQGLEWMGRIDTGNGNVKFDPKFQGRVTITTDTSASTAYMELSSLRSEDTAVYYCAPYGYGFHSWGQGTLVTVSS VL: EIVMTQSPATLSVSPGERATLSCRASENIYRTLAWYQQKPGQAPRLLIYGATTLADGIPARFSGSGSGTEFTLTISSLQSEDFGVYYCQHFWGTPWTFGQGTKVEIK
ELISA data: 0.337
--
binder: CD81K13 HC 05-hVH_1_69 / LC 03-hVK_1_9 (antibody, V domains shown, human constant region) VH: QVQLVQSGAEVKKPGSSVKVSCKASGFNFKDSYLHWVRQAPGQGLEWMGRIDTGNGNVKFDPKFQGRVTITTDESTSTAYMELSSLRSEDTAVYYCVPYGYGFHSWGQGTLVTVSS VL: DIQLTQSPSFLSASVGDRVTITCRASENIYRTLAWYQQKPGKAPKLLIYAATTLASGVPSRFSGSGSGTEFTLTISSLQPEDFATYYCQHFWGTPWTFGQGTKVEIK
ELISA data: 0.787
--
binder: CD81K13 HC 01-hVH_1_f / LC 06-hVK_1_39 (antibody, V domains shown, human constant region) VH: EVQLVQSGAEVKKPGATVKISCKVSGYTFTDSYMHWVQQAPGKGLEWMGRIDTGNGNVKFDPKFQGRVTITADTSTDTAYMELSSLRSEDTAVYYCAPYGYGFHSWGQGTLVTVSS VL: DIQMTQSPSSLSASVGDRVTITCRASENIYRTLAWYQQKPGKAPKLLIYAATTLASGVPSRFSGSGSGTDFTLTISSLQPEDFGTYYCQHFWGTPWTFGQGTKVEIK
ELISA data: 0.822

Qu. Dear colleague, I am looking for the recorded ELISA data of the following binder: CD81K13 HC 07-hVH_1_3 / LC 03-hVK_1_9 (antibody, V domains shown, human constant region) VH: QVQLVQSGAEVKKPGASVKVSCKASGYTFKDSYLHWVRQAPGQGLEWMGRIDTGNGNVKFDPKFQGRVTITTDTSASTAYMELSSLRSEDTAVYYCAPYGYGFHSWGQGTLVTVSS VL: DIQLTQSPSFLSASVGDRVTITCRASENIYRTLAWYQQKPGKAPKLLIYAATTLASGVPSRFSGSGSGTEFTLTISSLQPEDFATYYCQHFWGTPWTFGQGTKVEIK
Ans. 0.331
